Experiment: qHTS of pediatric cancer cell lines to identify multiple opportunities for drug repurposing: Primary screen for LAN-5 cells (AID 1347100)
Settings: LAN-5 neuroblastoma viability, CellTiter-Glo luminescence, 48 h; series mostly up to 46 µM
Records with an inconclusive call do not appear. Calls of active or inactive are those of the source. The call rests on the fitted dose curve; in most records, active means well fitted cell-killing curve with a large enough effect; inconclusive means small, poorly fitted or top-dose-only effect; inactive means no such curve, though single readings can be large or run the other way.
Outcome field: choose from active, inactive

Here's what some known entries look like.
1) CCC(=O)O[C@@H]1C=C2CCC3C(CCC4(C)C3CC[C@@H]4OC(=O)CC)C2CC1 (some centres undefined); inactive
2) O=C(Oc1ccc([N+](=O)[O-])cc1)N1CCC(C(O)(c2ccc3c(c2)OCO3)c2ccc3c(c2)OCO3)CC1; inactive
3) O=[N+]([O-])c1cc([N+](=O)[O-])c2ccccc2c1; inactive
4) COc1cccc2c1[C@]13CCN(CC4CC4)[C@H](C2)[C@]1(OC)CCC(=O)C3; inactive
5) CC(C)NCC(O)c1ccc([N+](=O)[O-])cc1 (centres undefined); inactive
6) Nc1ccc([N+](=O)[O-])cc1; inactive
7) C[C@@]12OC(=O)[C@]1([C@@H](O)[C@@H]1C=CCCC1)NC(=O)[C@H]2CCCl; active
8) CC(C)(O)C=CC(=O)[C@](C)(O)[C@H]1[C@H](O)C[C@]2(C)[C@@H]3CC=C4[C@@H](C=C(O)C(=O)C4(C)C)[C@]3(C)C(=O)C[C@@]12C; active
9) N#C[C@H](O[C@@H]1O[C@H](CO[C@@H]2O[C@H](CO)[C@H](O)[C@H](O)[C@H]2O)[C@H](O)[C@H](O)[C@H]1O)c1ccccc1; active
10) CO/C=C(/C(=O)OC)c1ccccc1Oc1cc(Oc2ccccc2C#N)ncn1; active

Input: Identify the outcome logged in this assay for the compound shown: "CC1=C(O)C(=O)C=C2C1=CC=C1[C@@]2(C)CC[C@@]2(C)[C@@H]3C[C@](C)(C(=O)O)CC[C@]3(C)CC[C@]12C"
Output: active

Input: Follow-up entry: "CCN1C[C@]2(OC(=O)c3ccccc3NC(C)=O)CC[C@H](OC)[C@@]34[C@H]5CC6[C@@H](OC)C[C@](O)(C(C[C@@H]23)[C@@H]14)[C@@]5(O)[C@@H]6OC"
Output: inactive

Input: Follow-up entry: "O=S(=O)(O)C(F)(F)C(F)(F)C(F)(F)C(F)(F)C(F)(F)C(F)(F)C(F)(F)C(F)(F)F"
Output: inactive

Input: Follow-up entry: N=c1c2c(-c3ccccc3)c(-c3ccccc3)n(Cc3ccccc3)c2ncn1C1CCC(O)CC1 (centres undefined)
Output: active

Input: Follow-up entry: "O=C(Oc1ccc([N+](=O)[O-])cc1)N1CCN(Cc2cccc(Oc3ccccc3)c2)CC1"
Output: inactive

###

Assay: qHTS for Inhibitors of the Functional Ribonucleoprotein Complex (vRNP) of Lymphocytic Choriomeningitis Arenaviruses (LCMV): Viability assay - alamar blue signal for LCMV Primary Screen (AID 1347085); further: nearly all actives have a fitted effect of over 80% in size
Conditions: alamar blue viability counter-screen, LCMV vRNP screen cells; series mostly up to 57.5 µM
Inconclusive results are not listed. Activity calls are given as the source filed them. The call rests on the fitted dose curve; tested in HEK293 reporter line.
Outcome field: choose from active, inactive

1) COc1cc2ncnc(Nc3ccc(F)c(Cl)c3)c2cc1NC(=O)C=CCN1CCCCC1; inactive

Input: Identify the outcome logged in this assay for the molecule shown: "CC[C@@H](C)[C@H](NC(=O)[C@H](CC1CCCCC1)NC(=O)c1ccno1)C(=O)N1CCC2(CCc3ccccc32)CC1"
Output: inactive

Input: Follow-up entry: "CCc1cncnc1N1CCN(Cc2nc3ccc(C(F)(F)F)cc3[nH]2)CC1"
Output: inactive

###

Test: Cell Viability - LYMP2-024 (AID 988);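 further: cells exposed to compound for 24 hr at 37 °C; nearly all actives have a fitted effect of over 60% in size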
Settings: LYMP2-024 lymphoblastoid cell viability; series mostly up to 92.2 µM
Records with an inconclusive call do not appear. The source made the active and inactive calls. The call rests on the fitted dose curve; in most records, active means well fitted cell-killing curve with a large enough effect; inconclusive means small, poorly fitted or top-dose-only effect; inactive means flat fitted curve, though single readings scatter.
Outcome field: choose from active, inactive

1) CC(=O)[O][Hg][c]1ccccc1; active

Input: Identify the outcome logged in this assay for the compound shown: "Nc1ccc(Sc2ccc(N)cc2)cc1"
Output: inactive

Input: Follow-up entry: "CCCCCCCCc1ccc(O)cc1"
Output: inactive

Input: Follow-up entry: "CCOCCOC(C)=O"
Output: inactive

Input: Follow-up entry: "O=C(O)C(Cl)Cl"
Output: inactive

###

Test: Quantitative High-Throughput drug screen in 47 multiple myeloma cell lines against the NCATS MIPE library collection: OPM2_DSMZ cell viability assay (AID 1919872); further: nearly all actives have a fitted effect of over 30% in size
Details: OPM2 myeloma viability, CellTiter-Glo ATP luminescence, 48 h; series mostly up to 45.8 µM
Records with an inconclusive call do not appear. The source made the active and inactive calls. Calls come from the whole dose curve; as a rule, active = well fitted cell-killing curve with a large enough effect; inconclusive = small, poorly fitted or top-dose-only effect, or effect the other way; inactive = no such curve, though single readings can be large or run the other way.
Outcome field: choose from active, inactive

Input: Identify the outcome logged in this assay for the compound shown: "COc1ccc(C(=O)c2c(C)n(CCN3CCOCC3)c3cc(I)ccc23)cc1"
Output: active

Input: Follow-up entry: "C[C@]12COC(=O)C[C@@H]1CC[C@@H]1[C@H]2CC[C@@]2(C)[C@H]1CC[C@]2(C)O"
Output: inactive

Input: Follow-up entry: "C[C@@H]1CC[C@H]2[C@@H](C)C(=O)O[C@@H]3O[C@@]4(C)CC[C@H]1[C@]32OO4"
Output: active

Input: Follow-up entry: NC1=NC(=O)N2CC12 (stereo not given)
Output: inactive

Input: Follow-up entry: "CC[C@@H](C(N)=O)N1CCCC1=O"
Output: inactive

###

Assay: Cell Viability - LYMP2-016 (AID 984);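 further: cells exposed to compound for 24 hours at 37 °C; nearly all actives have a fitted effect of over 55% in size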
Conditions: LYMP2-016 lymphoblastoid cell viability, qHTS; series mostly up to 92.2 µM
Inconclusive results are not listed. Activity calls are given as the source filed them. Calls follow the shape of the dose curve; as a rule, active = well fitted cell-killing curve with a large enough effect; inconclusive = small, poorly fitted or top-dose-only effect; inactive = flat fitted curve, though single readings scatter.
Outcome field: choose from yes for active, no for inactive

1. COC(C)(C)CCCC(C)C/C=C/C(C)=C/C(=O)OC(C)C (configuration not stated); no

Input: Identify the outcome logged in this assay for the compound shown: "O=[N+]([O-])c1c(Cl)c(Cl)cc(Cl)c1Cl"
Output: no

Input: Follow-up entry: "CC(=O)[O][Hg][c]1ccccc1"
Output: yes

Input: Follow-up entry: "OCCCBr"
Output: no

Input: Follow-up entry: "CCOCCOC(C)=O"
Output: no

Input: Follow-up entry: "O=[N+]([O-])c1c2ccccc2cc2ccccc12"
Output: no

Input: Follow-up entry: "CCCCCCCCc1ccc(O)cc1"
Output: no

###

Assay: qHTS of pediatric cancer cell lines to identify multiple opportunities for drug repurposing: Primary screen for NB-EBc1 cells (AID 1347095); further: potency means the concentration at half of the fitted maximal effect
Conditions: NB-EBc1 neuroblastoma viability, CellTiter-Glo luminescence, 48 h; series mostly up to 46 µM
Records with an inconclusive call do not appear. Activity calls are given as the source filed them. Calls come from the whole dose curve; as a rule, active = well fitted cell-killing curve with a large enough effect; inconclusive = small, poorly fitted or top-dose-only effect; inactive = no such curve, though single readings can be large or run the other way.
parameter: Potency

1) CCNC(=O)C[C@@H]1N=C(c2ccc(Cl)cc2)c2cc(OC)ccc2-n2c(C)nnc21; 10.5 µM (active)
2) O=C(N[C@H]1CN2CCC1CC2)c1ccc(Cl)cc1; inactive
3) CCC(=O)OC1CCC2C3CCC4=CC(=O)CC[C@@]4(C)C3CC[C@]12C (stereo not given in full); inactive
4) C=CCC1=C(C)C(OC(=O)C2C(C=C(C)C)C2(C)C)CC1=O (stereo not given); 68.6 µM (active)

Input: Quick check: Potency of "COc1ccc2c(c[n+](C)c3c4cc5c(cc4ccc23)OCO5)c1OC" ?
Output: 5.26 µM (active)

###

Experiment: qHTS to identify inhibitors of the type 1 interferon - major histocompatibility complex class I in skeletal muscle: primary screen against the NCATS Mechanism Interrogation Plate v5.0 (MIPE) Libary (AID 1347411); further: nearly all actives have a fitted effect of over 65% in size
Details: iHSKM cells + IFN-b, HiBiT-tagged MHC-I luminescence, 24 h; series mostly up to 45.8 µM
Records with an inconclusive call do not appear. The source made the active and inactive calls. Calls follow the shape of the dose curve; as a rule, active = well fitted inhibition curve with a large enough effect; inconclusive = small, poorly fitted or top-dose-only effect; inactive = no such curve, though single readings can be large or run the other way.
Outcome field: choose from active, inactive

1. CC(=O)Nc1ccc(OC[C@](C)(O)C(=O)Nc2ccc([N+](=O)[O-])c(C(F)(F)F)c2)cc1; inactive
2. COC1=C[C@@H]2[C@@H]3Cc4ccc(OC)c(O)c4[C@]2(CCN3C)CC1=O; inactive

Input: Identify the outcome logged in this assay for the molecule shown: "CC(C)(O)C(=O)Nc1ccc([N+](=O)[O-])c(C(F)(F)F)c1"
Output: inactive

Input: Follow-up entry: "O=c1[nH]c2ccc(Cl)cc2c(N[C@@H]2CN3CCC2CC3)c1-c1nc2ccccc2[nH]1"
Output: active

Input: Follow-up entry: CCCC[N+]1(C)[C@H]2CC(OC(=O)[C@H](CO)c3ccccc3)C[C@H]1[C@H]1O[C@H]12 (stereo not given in full)
Output: inactive

###

Experiment: Quantitative High-Throughput drug screen in 47 multiple myeloma cell lines against the NCATS MIPE library collection: Delta47_JCRB cell viability assay (AID 1918925; further: nearly all actives have a fitted effect of over 45% in size)
Conditions: Delta47 myeloma viability, CellTiter-Glo ATP, 48 h; series mostly up to 45.8 µM
Records with an inconclusive call do not appear. Activity calls are given as the source filed them. The call rests on the fitted dose curve; in most records, active means well fitted cell-killing curve with a large enough effect; inconclusive means small, poorly fitted or top-dose-only effect, or effect the other way; inactive means no such curve, though single readings can be large or run the other way.
Outcome field: choose from active, inactive

1. Cc1c(N)nc([C@H](CC(N)=O)NC[C@@H](N)C(N)=O)nc1C(=O)N[C@H](C(=O)N[C@@H](C)[C@H](O)[C@@H](C)C(=O)N[C@@H](C(=O)NCCc1nc(-c2nc(C(=O)NCCC[S+](C)C)cs2)cs1)[C@@H](C)O)C(O[C@H]1O[C@H](CO)[C@H](O)[C@@H](O)[C@@H]1O[C@H]1O[C@H](CO)[C@@H](O)[C@H](OC(N)=O)[C@H]1O)c1cnc[nH]1 (some centres undefined); active
2. C[C@]12COC(=O)C[C@@H]1CC[C@@H]1[C@H]2CC[C@@]2(C)[C@H]1CC[C@]2(C)O; inactive
3. C[C@]12CCC(=O)C(O)=C1CC[C@@H]1[C@H]3CCC(=O)[C@@]3(C)CC[C@@H]12; inactive
4. COC1=C[C@@H]2[C@@H]3Cc4ccc(OC)c(O)c4[C@]2(CCN3C)CC1=O; active
5. Cc1[nH]nc2ccc(-c3cncc(OC[C@@H](N)Cc4c[nH]c5ccccc45)c3)cc12; active
6. N=c1c2c(-c3ccccc3)c(-c3ccccc3)n(Cc3ccccc3)c2ncn1C1CCC(O)CC1 (centres undefined); active

Input: Identify the outcome logged in this assay for the molecule shown: "CCOC(=O)c1c(C(C#N)=CN)c2ccc(Cl)c(Cl)c2n1C"
Output: inactive

Input: Follow-up entry: "CC(=Cc1csc(C)n1)[C@@H]1C[C@H]2O[C@@H]2CCC[C@H](C)[C@@H](O)[C@@H](C)C(=O)C(C)(C)[C@@H](O)CC(=O)O1"
Output: inactive

Input: Follow-up entry: "CCN1CCN(C(=O)Cc2ccc(Nc3ncc(F)c(Nc4ccc(C(=O)Nc5ccccc5Cl)cc4)n3)cc2)CC1"
Output: active
